Cited source: patent US8865656B2

tested.on: human CXCR4 (Homo sapiens)
Construct: expressed in transfected cells; host or cells: mouse pre-B cell line 300-19
assay.info: Ca2+-assay: CXCR4-antagonizing activity (SDF-1 induced calcium mobilization)
Format: cell-based
conditions.used: mouse pre-B cell line 300-19 stably transfected with human CXCR4, read-out: IC50% [nM] ± SD, CXCR4 receptor
Source text: 2.3. Ca^2+-Assay: CXCR4-Antagonizing Activity of the Peptides […]

structure.string	IC50
CC[C@@H](C)[C@H]1NC(=O)[C@H](CCCCN)NC(=O)[C@H](CCC(N)=O)NC(=O)[C@H](Cc2ccc(O)cc2)NC(=O)[C@@H]2CSSC[C@H](NC(=O)[C@H](C)NC(=O)[C@H](Cc3c[nH]cn3)NC(=O)[C@H](Cc3ccc(O)cc3)NC(=O)[C@@H]3CCCN3C1=O)C(=O)N[C@@H](CO)C(=O)N[C@@H](C)C(=O)N[C@H](Cc1c[nH]c3ccccc13)C(=O)N[C@@H](CCN)C(=O)N[C@@H](CCCNC(=N)N)C(=O)N[C@@H](Cc1ccc(O)cc1)C(=O)N2	0.17 nM

====

Below, each of the compounds is paired with its reported IC50 value.
tested.on: human CXCR4 (Homo sapiens, UniProt P61073)
Construct: expressed in transfected cells; host or cells: mouse pre-B cell line 300-19
Sequence (P61073 whole entry): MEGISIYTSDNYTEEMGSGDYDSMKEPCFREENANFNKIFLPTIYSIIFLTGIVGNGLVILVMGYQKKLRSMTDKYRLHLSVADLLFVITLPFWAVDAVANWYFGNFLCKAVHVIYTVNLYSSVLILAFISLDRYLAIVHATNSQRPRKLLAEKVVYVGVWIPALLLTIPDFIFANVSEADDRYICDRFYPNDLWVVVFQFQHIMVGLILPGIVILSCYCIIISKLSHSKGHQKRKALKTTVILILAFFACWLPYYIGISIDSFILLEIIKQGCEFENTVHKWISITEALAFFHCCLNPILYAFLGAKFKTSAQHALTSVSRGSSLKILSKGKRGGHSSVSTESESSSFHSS
assay.info: Ca2+-assay: CXCR4-antagonizing activity (SDF-1 induced calcium mobilization)
Type: cell-based
conditions.used: mouse pre-B cell line 300-19 stably transfected with human CXCR4, read-out: IC50% [nM] ± SD, CXCR4 receptor
Excerpt: 2.3. Ca^2+-Assay: CXCR4-Antagonizing Activity of the Peptides […]
Positions of bridges follow the written chain, without caps; N, C: chain ends. Non-standard residues stand in square brackets, D forms with d. Residues, ends and D or L forms follow the SMILES beside them. β3hS = N[C@@H](CO)CC(=O)O; Dab = NCC[C@H](N)C(=O)O

compound	IC50, nM
C[C@@H]1NC(=O)[C@H](Cc2c[nH]cn2)NC(=O)[C@H](Cc2ccc(O)cc2)NC(=O)[C@@H]2CCCN2C(=O)[C@@H](CCCCN)N(C)C(=O)[C@H](CCCCN)NC(=O)[C@H](CCC(N)=O)NC(=O)[C@H](Cc2ccc(O)cc2)NC(=O)[C@@H]2CSSC[C@H](NC1=O)C(=O)N[C@@H](CO)C(=O)N[C@@H](C)C(=O)N1CCC[C@@H]1C(=O)N[C@@H](CCN)C(=O)N[C@@H](CCCNC(=N)N)C(=O)N[C@@H](Cc1ccc(O)cc1)C(=O)N2	0.31
C[C@@H]1NC(=O)[C@H](CO)NC(=O)[C@@H]2CSSC[C@H](NC(=O)[C@H](Cc3ccc(O)cc3)NC(=O)[C@H](CCCNC(=N)N)NC(=O)[C@H](CCN)NC(=O)[C@@H](Cc3ccc(O)cc3)NC1=O)C(=O)N[C@@H](Cc1ccc(O)cc1)C(=O)N[C@@H](CCC(N)=O)C(=O)N[C@@H](CCCCN)C(=O)N(C)[C@H](C)C(=O)N1CCC[C@H]1C(=O)N[C@@H](Cc1ccc(O)cc1)C(=O)N[C@@H](Cc1c[nH]cn1)C(=O)N[C@@H](C)C(=O)N2	0.1
C[C@@H]1NC(=O)[C@H](Cc2c[nH]cn2)NC(=O)[C@H](Cc2ccc(O)cc2)NC(=O)[C@@H]2CCCN2C(=O)CN(CCCCN)C(=O)[C@H](CCCCN)NC(=O)[C@H](CCC(N)=O)NC(=O)[C@H](Cc2ccc(O)cc2)NC(=O)[C@@H]2CSSC[C@H](NC1=O)C(=O)N[C@@H](CO)C(=O)N[C@@H](C)C(=O)N1CCC[C@@H]1C(=O)N[C@@H](CCN)C(=O)N[C@@H](CCCNC(=N)N)C(=O)N[C@@H](Cc1ccc(O)cc1)C(=O)N2	0.09
C[C@@H]1NC(=O)[C@H](Cc2c[nH]cn2)NC(=O)[C@H](Cc2ccc(O)cc2)NC(=O)[C@@H]2CCCN2C(=O)[C@@H](Cc2cn(Cc3ccccc3)cn2)NC(=O)[C@H](CCCCN)NC(=O)[C@H](CCC(N)=O)NC(=O)[C@H](Cc2ccc(O)cc2)NC(=O)[C@@H]2CSSC[C@H](NC1=O)C(=O)N[C@@H](CO)C(=O)N[C@@H](C)C(=O)N1CCC[C@@H]1C(=O)N[C@@H](CCN)C(=O)N[C@@H](CCCNC(=N)N)C(=O)N[C@@H](Cc1ccc(O)cc1)C(=O)N2	0.92
C[C@@H]1NC(=O)[C@H](Cc2c[nH]cn2)NC(=O)[C@H](Cc2ccc(O)cc2)NC(=O)[C@@H]2CCCN2C(=O)[C@H]2CCCN2C(=O)[C@H](CCCCN)NC(=O)[C@H](CCC(N)=O)NC(=O)[C@H](Cc2ccc(O)cc2)NC(=O)[C@@H]2CSSC[C@H](NC1=O)C(=O)N[C@@H](CO)CC(=O)N[C@@H](C)C(=O)N1CCC[C@@H]1C(=O)N[C@@H](CCN)C(=O)N[C@@H](CCCNC(=N)N)C(=O)N[C@@H](Cc1ccc(O)cc1)C(=O)N2 [compound 20] (cyclo(YHAC[β3hS]A[dP][Dab]RYCYQK[dP]P); disulfide 4-11)	2.66
